These data points were gathered from ChEMBL document CHEMBL3853352.

Assignment: determine reported log10(MIC) for the given compounds.
# Tested on: Mycobacterium tuberculosis
# PROTOCOL_TEXT: Antimycobacterial activity against Mycobacterium tuberculosis H37Rv after 7 days by MABA
# Type: functional
# STATED_CONDITIONS: 168 h
A value of 2 here means MIC of 100 in µM, since values are log10.

What does the data say about its log10(MIC)? Entry: "c1ccc(CCNc2nc(C3CC3)nc3sc4c(c23)CCCC4)cc1"
1.55

For the compound "COc1c(N2C[C@@H]3CCCN[C@@H]3C2)c(F)cc2c(=O)c(C(=O)O)cn(C3CC3)c12" , what log10(MIC) is on record?
0.10

Any idea what its log10(MIC) is? The compound is "Brc1ccc(Nc2nc(-c3ccccc3)nc3sc4c(c23)CCCC4)cc1"
1.46

Returns the measured log10(MIC) for the input compound. Input: "Cc1ccc(C)c(Nc2nc(-c3ccccc3)nc3sc4c(c23)CCCC4)c1"
0.31

Dear colleague, I am looking for the recorded log10(MIC) of the following compound: "CCc1nc(Nc2ccccc2)c2c3c(sc2n1)CCCC3"
1.31

Reported log10(MIC) for "Cc1cccc(C)c1Nc1nc(C2CC2)nc2sc3c(c12)CCCC3" : what is it?
1.25

Could you share which log10(MIC) value was measured for "Cc1ccc(Nc2nc(C3CC3)nc3sc4c(c23)CCCC4)c(C)c1" ?
1.85

Report log10(MIC) for "c1ccc(Nc2nc(C3CC3)nc3sc4c(c23)CCCC4)cc1" please.
0.99

For "CCc1nc(Nc2c(C)cccc2C)c2c3c(sc2n1)CCCC3" , what is its reported log10(MIC)?
1.27

Name the recorded log10(MIC) for "c1ccc(Nc2nc(-c3ccccc3)nc3sc4c(c23)CCCC4)cc1" .
0.64

What measured log10(MIC) goes with "CCc1nc(Nc2cc(C)ccc2C)c2c3c(sc2n1)CCCC3" ?
1.87

* * *

# PROTOCOL_TEXT: Inhibition of Mycobacterium tuberculosis ADH assessed as decrease in conversion of L-alanine to pyruvate by measuring NADH by spectrophotometry
# Design: species or system Mycobacterium tuberculosis H37Rv
ENDPOINT: IC50 (µM)
Give the value in µM but do not write µM after it.

Entry "Cc1ccc(C)c(Nc2nc(-c3ccccc3)nc3sc4c(c23)CCCC4)c1" : reported IC50 = ?
5.82

Look up IC50: "COc1ccc(Nc2nc(-c3ccccc3)nc3sc4c(c23)CCCC4)cc1"
8.72

Need IC50 of "Clc1ccc(Nc2nc(C3CC3)nc3sc4c(c23)CCCC4)cc1" , thanks.
11.1

Which IC50 reading was recorded for the molecule "CCc1nc(NCCc2ccccc2)c2c3c(sc2n1)CCCC3" ?
1.82

// IC50 lookup, key: "c1ccc(CCNc2nc(-c3ccccc3)nc3sc4c(c23)CCCC4)cc1"
5.6

# query: IC50 of entry "CCc1nc(Nc2ccc(C)cc2)c2c3c(sc2n1)CCCC3"
3.26

Return reported IC50; argument: "CCc1nc(Nc2ccc(Br)cc2)c2c3c(sc2n1)CCCC3"
6.54

Entry under review: "Fc1ccc(Nc2nc(-c3ccccc3)nc3sc4c(c23)CCCC4)cc1" . Reported IC50?
12.2

Field request: IC50 | item: "c1ccc(CNc2nc(C3CC3)nc3sc4c(c23)CCCC4)cc1"
4.23

Dear colleague, I am looking for the recorded IC50 of the following molecule: "Cc1cccc(C)c1Nc1nc(C2CC2)nc2sc3c(c12)CCCC3"
7.55

Could you tell me which IC50 is on file for "Cc1ccc(Nc2nc(-c3ccccc3)nc3sc4c(c23)CCCC4)cc1" ?
7.97

Would you mind telling me what IC50 value was observed for "Cc1ccc(Nc2nc(C3CC3)nc3sc4c(c23)CCCC4)c(C)c1" ?
9

I would be grateful if you could share the reported IC50 for "Cc1ccc(Nc2nc(-c3ccccc3)nc3sc4c(c23)CCCC4)c(C)c1" .
9.96

Any idea what IC50 was measured for "CCc1nc(NCc2ccccc2)c2c3c(sc2n1)CCCC3" ?
6.03
